inhibition reference
Species: Gallus gallus
Experiment: Antiangiogenic activity in chick embryo chorioallantoic membrane assessed as number of eggs showing 3 mm avascular zone at 10 ug
Assay type: functional, tissue-based
Hi! Could you send only the number? It should be in %, unit omitted.

[[record]]
smiles_repr = "CO[C@@H]1[C@H](OC(=O)NC(=O)CCl)CC[C@]2(CO2)[C@H]1[C@@]1(C)O[C@@H]1CC=C(C)C"
measurement_kind = "inhibition"
reported = 82

[[record]]
smiles_repr = "CCCCCCCCc1ccc(CCC(N)(CO)CO)cc1"
measurement_kind = "inhibition"
reported = 77

[[record]]
smiles_repr = "C#Cc1ccc(CCC(N)(CO)CO)cc1"
measurement_kind = "inhibition"
reported = 42


Q: Request the reported inhibition associated with C#CC#CC#Cc1ccc(CCC(N)(CO)CO)cc1
Result: 60

Q: Request the reported inhibition associated with C#CC#Cc1ccc(CCC(N)(CO)CO)cc1
Result: 90

###

inhibition reference
Organism: Gallus gallus
Experiment: Antiangiogenic activity in chick embryo chorioallantoic membrane assessed as number of eggs showing 3 mm avascular zone at 1 ug
Format: functional, tissue-based
Hi! Could you send only the number? It should be in %, unit omitted.

Q: Request the reported inhibition associated with CCCCCCCCc1ccc(CCC(N)(CO)CO)cc1
Result: 40

Q: Request the reported inhibition associated with C#CC#Cc1ccc(CCC(N)(CO)CO)cc1
Result: 35

###

Organism: Gallus gallus
Test: Antiangiogenic activity in chick embryo chorioallantoic membrane assessed as number of eggs showing 3 mm avascular zone at 1 ug
Assay type: functional, tissue-based
inhibition reference
Hi! Could you send only the number? It should be in %, unit omitted.

Example cases with answers are listed next.
[[record]]
smiles_repr = "C#Cc1ccc(CCC(N)(CO)CO)cc1"
reading_unit = "%"
reported = 17

[[record]]
smiles_repr = "C#CC#CC#Cc1ccc(CCC(N)(CO)CO)cc1"
reading_unit = "%"
reported = 40


Pending compound:
Q: Request the reported inhibition associated with CO[C@@H]1[C@H](OC(=O)NC(=O)CCl)CC[C@]2(CO2)[C@H]1[C@@]1(C)O[C@@H]1CC=C(C)C
Result: 50
